test.description: Cytotoxicity against human A549 cells after 72 hrs by Cell Titer-Glo assay
Format: cell-based
measurement.name: CC50 at 72 h (µM)
One number for each entry, in µM.

Exercise: Determine from records and report CC50 at 72 h for CC(C)(C)C(=O)OCO[C@H]1[C@@H](O)[C@H](n2cnc3ncnc(N)c32)O[C@@H]1COP(=O)(O)O[C@@H]1[C@H](OCOC(=O)C(C)(C)C)[C@@H](COP(=O)(O)O[C@@H]2[C@H](OCOC(=O)C(C)(C)C)[C@@H](COP(=O)(O)OP(=O)(O)OP(=O)(O)O)O[C@H]2n2cnc3ncnc(N)c32)O[C@H]1n1cnc2ncnc(N)c21
Key: 47
